The origin of these recorded values is patent US20220227873A1.

Catalogue of binders with associated TNF-α 72 hr, Fold change, as %
molecular target: human GAL9 of the human PBMC cultures (human); assay: cell-based or functional assay
Numeric only. Scale: %

Which measured TNF-α 72 hr, Fold change, as % value corresponds to P9-24 (antibody, IgG1, V domains shown, Tested as bivalent monospecific native human full-length IgG1; also called ABS clone P9-24) VH: EVQLVESGGGLVQPGGSLRLSCAASGFTFSSYFIHWVRQAPGKGLEWVASIYPTSHSTSYADSVKGRFTISADTSKNTAYLQMNSLRAEDTAVYYCARLGYPGVMDYWGQGTLVTVSS VL: DIQMTQSPSSLSASVGDRVTITCRASQSVSSAVAWYQQKPGKAPKLLIYSASSLYSGVPSRFSGSRSGTDFTLTISSLQPEDFATYYCQQVDSRLATFGQGTKVEIKR ?
53.5

# input for lookup
Which measured TNF-α 72 hr, Fold change, as % value corresponds to P9-34 (antibody, IgG1, V domains shown) VH: EVQLVESGGGLVQPGGSLRLSCAASGFTFSTYFIHWVRQAPGKGLEWVAYIYPQGGYTYYADSVKGRFTISADTSKNTAYLQMNSLRAEDTAVYYCARQSYPGVFDYWGQGTLVTVSS VL: DIQMTQSPSSLSASVGDRVTITCRASQSVSSAVAWYQQKPGKAPKLLIYSASSLYSGVPSRFSGSRSGTDFTLTISSLQPEDFATYYCQQWTIALTTFGQGTKVEIKR ?
73.7
